- TEST SYSTEM: Fatty acid-binding protein, adipocyte (Homo sapiens)
- Sequence (P15090 whole entry): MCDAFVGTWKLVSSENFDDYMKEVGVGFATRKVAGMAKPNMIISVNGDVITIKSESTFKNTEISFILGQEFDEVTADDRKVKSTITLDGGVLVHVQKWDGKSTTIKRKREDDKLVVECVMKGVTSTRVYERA
pKi: −log10 of the molar value.
MEASUREMENT LABEL: pKi

[A] O=C(O)COc1cccc(-c2ccccc2-c2cc(-c3ccccc3)n(-c3ccccc3)n2)c1
[B] O=C(O)COc1cccc(-c2ccccc2-c2cc(-c3ccccc3)n(-c3ccc(Cl)cc3)n2)c1
[C] O=C(O)COc1cccc(-c2ccccc2-c2cc(-c3cccs3)n(-c3ccc(Cl)cc3)n2)c1
Q: Thanks in advance: please rank these 3 entries by pKi, highest to lowest. # format: label list in the order the request specifies
Ans: C, B, A
